Below: a set of entries, each annotated with reported pEC50.
study_system: human F508del-CFTR (Homo sapiens, UniProt P13569, DEL508-508)
Sequence (P13569 with tags, fused parts or gaps DEL508-508): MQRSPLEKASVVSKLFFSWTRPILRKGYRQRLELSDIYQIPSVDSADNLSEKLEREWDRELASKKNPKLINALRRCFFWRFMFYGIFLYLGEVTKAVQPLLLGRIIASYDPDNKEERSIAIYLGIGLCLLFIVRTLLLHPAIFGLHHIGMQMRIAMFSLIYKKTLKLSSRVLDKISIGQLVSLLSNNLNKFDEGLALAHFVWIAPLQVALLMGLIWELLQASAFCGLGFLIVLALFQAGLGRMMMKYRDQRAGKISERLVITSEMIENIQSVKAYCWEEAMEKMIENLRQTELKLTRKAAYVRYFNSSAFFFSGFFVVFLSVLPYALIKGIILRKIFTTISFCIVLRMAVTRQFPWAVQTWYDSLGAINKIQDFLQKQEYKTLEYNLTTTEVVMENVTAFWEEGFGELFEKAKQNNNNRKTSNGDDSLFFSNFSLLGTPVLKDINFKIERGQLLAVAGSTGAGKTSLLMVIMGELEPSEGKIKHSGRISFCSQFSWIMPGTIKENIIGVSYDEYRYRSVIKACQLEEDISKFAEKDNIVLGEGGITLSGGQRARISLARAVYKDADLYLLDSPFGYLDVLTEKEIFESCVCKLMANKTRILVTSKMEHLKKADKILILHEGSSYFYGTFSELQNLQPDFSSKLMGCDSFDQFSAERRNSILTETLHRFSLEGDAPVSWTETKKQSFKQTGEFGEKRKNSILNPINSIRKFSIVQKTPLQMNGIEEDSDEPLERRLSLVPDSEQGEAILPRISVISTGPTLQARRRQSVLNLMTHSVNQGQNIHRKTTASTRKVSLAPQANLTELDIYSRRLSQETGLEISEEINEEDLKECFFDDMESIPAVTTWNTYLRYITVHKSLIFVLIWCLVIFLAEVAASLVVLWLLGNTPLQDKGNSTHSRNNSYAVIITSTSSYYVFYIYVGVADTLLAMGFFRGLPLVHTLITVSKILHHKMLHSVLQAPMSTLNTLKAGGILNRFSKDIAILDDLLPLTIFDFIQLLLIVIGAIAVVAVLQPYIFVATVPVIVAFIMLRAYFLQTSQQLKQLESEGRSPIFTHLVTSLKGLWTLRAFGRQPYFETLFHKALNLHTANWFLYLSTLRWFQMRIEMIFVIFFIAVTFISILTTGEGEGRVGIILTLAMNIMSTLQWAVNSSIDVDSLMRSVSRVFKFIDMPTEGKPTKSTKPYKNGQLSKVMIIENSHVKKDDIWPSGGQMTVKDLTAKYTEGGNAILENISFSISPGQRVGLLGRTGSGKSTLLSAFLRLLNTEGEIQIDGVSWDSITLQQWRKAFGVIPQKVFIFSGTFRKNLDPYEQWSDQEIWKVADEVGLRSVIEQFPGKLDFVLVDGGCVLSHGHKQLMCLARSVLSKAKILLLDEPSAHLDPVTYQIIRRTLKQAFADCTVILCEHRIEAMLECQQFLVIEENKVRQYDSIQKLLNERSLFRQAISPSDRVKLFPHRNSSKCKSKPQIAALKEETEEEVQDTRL
test_summary: F508del-CFTR cell surface expression (corrector activity), DiscoveRx ß-galactosidase complementation chemiluminescence assay in recombinant U2OS cell line;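 note: U2OS cells co-expressing ProLink-tagged F508del-CFTR and a membrane-anchored enzyme acceptor, where more surface CFTR restores β-galactosidase activity measured by chemiluminescence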
test_settings: EC50, F508del-CFTR cell surface expression, U2OS cells, 16h compound incubation; geomean of several measurements
pEC50: −log10 of the molar value.
measurement_kind: pEC50

>  <structure_smiles_string>
COc1noc(CCNC(=O)[C@@H]2CC(=O)N(C)[C@@H](CC(C)C)C(=O)N(C)[C@H](Cc3nc(C(F)(F)F)no3)C(=O)N[C@H](Cc3ccccc3)COc3cc(C)nc(OC)c3C(=O)N2)n1

>  <measurement_kind>
pEC50

>  <recorded_result>
6.98

$$$$
>  <structure_smiles_string>
COc1cccc(CCNC(=O)[C@@H]2CC(=O)N(C)[C@@H](CC(C)C)C(=O)N(C)[C@H](CC(C)(C)C)C(=O)N[C@H](Cc3ccccc3)COc3cc(C)nc(OC)c3C(=O)N2)c1

>  <measurement_kind>
pEC50

>  <recorded_result>
7.39

$$$$
>  <structure_smiles_string>
Cc1cc(CCNC(=O)[C@@H]2CC(=O)N(C)[C@@H](CC(C)C)C(=O)N(C)[C@H](Cc3nc(C(F)(F)F)no3)C(=O)N[C@H](Cc3ccccc3)COc3ccc4ncc(F)cc4c3C(=O)N2)on1

>  <measurement_kind>
pEC50

>  <recorded_result>
7.49

$$$$
>  <structure_smiles_string>
COc1nc(C)cc2c1C(=O)N[C@H](C(=O)NCCc1nc(C3CC3)no1)CC(=O)N(C)[C@@H](CC(C)C)C(=O)N(C)[C@H](Cc1nc(C(F)(F)F)no1)C(=O)N[C@H](Cc1ccccc1)CO2

>  <measurement_kind>
pEC50

>  <recorded_result>
7.34

$$$$
>  <structure_smiles_string>
COc1cc(CCNC(=O)[C@@H]2CC(=O)N(C)[C@@H](CC(C)C)C(=O)N(C)[C@H](Cc3cc(OC)no3)C(=O)N[C@H](Cc3ccccc3)COc3ccc4ncc(F)cc4c3C(=O)N2)on1

>  <measurement_kind>
pEC50

>  <recorded_result>
7.23

$$$$

The measurements presented in this section are drawn from patent US20240208992A1.
